# SYSTEM: 5-hydroxytryptamine receptor 2A (Homo sapiens) (UniProt P28223)
# Sequence (P28223 whole entry, looked up): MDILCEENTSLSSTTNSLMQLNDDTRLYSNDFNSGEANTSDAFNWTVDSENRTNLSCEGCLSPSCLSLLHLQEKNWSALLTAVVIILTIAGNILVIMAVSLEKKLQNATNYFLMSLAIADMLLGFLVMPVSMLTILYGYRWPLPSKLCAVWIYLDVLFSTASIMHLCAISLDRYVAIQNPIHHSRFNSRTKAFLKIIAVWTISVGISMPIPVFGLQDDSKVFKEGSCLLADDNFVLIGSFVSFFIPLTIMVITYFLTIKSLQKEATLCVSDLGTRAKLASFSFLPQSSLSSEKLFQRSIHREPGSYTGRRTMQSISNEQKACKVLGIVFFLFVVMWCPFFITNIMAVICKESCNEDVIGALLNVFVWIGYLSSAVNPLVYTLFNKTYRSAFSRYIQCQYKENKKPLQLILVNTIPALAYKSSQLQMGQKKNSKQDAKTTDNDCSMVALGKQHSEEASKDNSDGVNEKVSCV
# ASSAY PROCEDURE: 5-hydroxytryptamine receptor 2A (HTR2A) small molecule antagonists, cell-based qHTS assay (AID 1963586); further: nearly all actives have a fitted effect of over 45% in size
# MEASUREMENT CONTEXT: HTR2A-CHO cells, DOI-induced calcium flux, fluorescence; series mostly up to 61.5 µM
Inconclusive results are not listed. The source made the active and inactive calls. The call rests on the fitted dose curve.
Outcomes: yes (1) = active, no (0) = inactive

MOLECULE	CLASS
O=S(=O)(Cl)c1c(Cl)cccc1Cl	no (0)
CC1=NC(C)OC1C (stereo unspecified)	no (0)
CCCCCCCCCCCCSC	no (0)
CC(C)(C)c1cc(CCC(=O)NCCCCCCNC(=O)CCc2cc(C(C)(C)C)c(O)c(C(C)(C)C)c2)cc(C(C)(C)C)c1O	no (0)
Cc1cccc([N+](=O)[O-])c1C(=O)O	no (0)
C=CCCCC	no (0)
CCCCC(CC)COC(=O)COc1ccc(Cl)cc1C (stereo unspecified)	no (0)
C[N+]1(CC2COC(c3ccccc3)(C3CCCCC3)O2)CCCCC1 (stereo unspecified)	no (0)
COS(=O)(=O)C(F)(F)F	no (0)
Nc1ccc2cc(S(=O)(=O)O)ccc2c1	no (0)
CO/N=C(\C(=O)O)c1csc(NC(=O)CCl)n1	no (0)
CCCCCCOC(=O)CCC	no (0)
O=C1OC(=O)c2cc([N+](=O)[O-])ccc21	no (0)
CCC1CCC(CCC(=O)O)C1 (stereo unspecified)	no (0)
FC(F)OC(Cl)C(F)(F)F (stereo unspecified)	no (0)
Cn1cccc1	no (0)
CC/C=C(\C)C=O	no (0)
C/C=C(\C)C#N	no (0)
C=C(C)C1CCC(C)CC1O (stereo unspecified)	no (0)
C[Si](C)(CCCN)O[Si](C)(C)CCCN	no (0)
On1nnc2ccccc21	no (0)
Oc1cccc2cc3cccc(O)c3c(O)c12	no (0)
[Cl][Pt-2]([Cl])([Cl])[Cl]	no (0)
O=C(/C=C/c1ccc(O)c(O)c1)O[C@@H]1C[C@](O)(C(=O)O)C[C@@H](O)[C@H]1O	no (0)
Cc1c(C(C)C)c(=O)n(-c2ccccc2)n1C	no (0)
C=CC(=O)OCC1CCCO1 (stereo unspecified)	no (0)
Brc1ccccn1	no (0)
CCC1C(=O)OCC1Cc1cncn1C (stereo unspecified)	no (0)
CCc1cc(S(=O)(=O)O)c2cc(C(C)C)cccc1-2	no (0)
c1ccc(CNc2ncnc3nc[nH]c23)cc1	no (0)
CN1CCN(c2cc3c(cc2F)c(=O)c(C(=O)O)cn3-c2ccc(F)cc2)CC1	no (0)
CC(C)c1ccc(C(=O)N=C(N)N)cc1S(C)(=O)=O	no (0)
Cc1cc(O)c(C(C)(C)C)cc1C(C)(C)C	yes (1)
CC(C)CCCC(C)NCCC(C)C (stereo unspecified)	no (0)
CCc1cccc(CC)c1N(COC)C(=O)CS(=O)(=O)O	no (0)
CC(=O)[C@H]1CC[C@H]2[C@@H]3C=CC4=CC(=O)CC[C@@]4(C)[C@@H]3CC[C@]12C	no (0)
CCOC(=O)/C=C/C(=O)OCC	no (0)
CC(=O)c1ccc(Cl)c(Cl)c1Cl	no (0)
CC(C)(c1ccc(Oc2ccc3c(c2)C(=O)OC3=O)cc1)c1ccc(Oc2ccc3c(c2)C(=O)OC3=O)cc1	no (0)
COC(=O)CC#N	no (0)
CCC(CO)(CO)[N+](=O)[O-]	no (0)
Cc1ccccc1C(=O)Nc1ccc(C(=O)N2CCCC(N(C)C)c3ccccc32)cc1 (stereo unspecified)	no (0)
Cc1c(N=C=O)cccc1N=C=O	no (0)
O=CN1CCCCC1	no (0)
OCCC(F)(F)C(F)(F)C(F)(F)C(F)(F)C(F)(F)C(F)(F)C(F)(F)C(F)(F)F	no (0)
CC1CCCO1 (stereo unspecified)	no (0)
CC(C)CCOC(=O)CC(C)C	no (0)
Cc1ccc(N)nc1	no (0)
CCOC(=O)O[C@H](C)OC(=O)c1ccc2c(c1)cc(C(=O)NC1CCN(C(C)C)CC1)n2Cc1cc(-c2ccc(Cl)s2)on1	no (0)
COc1cc2c(cc1OC)C(=O)CC2	no (0)
CCC(C)c1nccnc1OC (stereo unspecified)	no (0)
CCOC(=O)Cn1c(=O)sc2cccc(Cl)c21	no (0)
COc1cc(C)ccc1C(C)C	no (0)
Nc1cc(Cl)c(O)c(Cl)c1	no (0)
C[Si]1(C)N[Si](C)(C)N[Si](C)(C)N1	no (0)
CC(C)C1OCCN1CCOC(=O)NCCCCCCNC(=O)OCCN1CCOC1C(C)C (stereo unspecified)	no (0)
